system: mPTP-inactive Daoy cell; experiment: CellTiter-Glo cell viability inhibition, mPTP-inactive Daoy cell; assay type: cell-based; settings: Homo sapiens, Daoy cell transfected with PPIF shRNA vector
metric: pIC50
# pIC50: negative log10 of molar concentration; output just the value

Check out these entries, answers already filled in.
* Cn1ccc2c([P+](c3ccccc3)(c3ccccc3)c3cccc4[nH]ncc34)cccc21 [AB35577] | 5.92
* c1ccc([P+](c2ccccc2)(c2ccc3[nH]ccc3c2)c2ccc3[nH]ncc3c2)cc1 [AB35529] | 6.06
* c1ccc([P+](c2ccccc2)(c2ccccc2)c2cccc3occc23)cc1 [AB36521] | 6.12

stdin: Please give the measured pIC50 for this molecule: c1ccc([P+](c2ccccc2)(c2ccccc2)c2cccc3scnc23)cc1 [AB36534]
stdout: 5.92

stdin: Quick check: pIC50 of c1ccc([P+](c2ccccc2)(c2cccc3[nH]ccc23)c2ccnc3[nH]ccc23)cc1 [AB35471] ?
stdout: 6.09
